// each record: one item and its IC50 for HIV-1 RT Ribonuclease H (Human immunodeficiency virus type 1 group M subtype B)

Would you mind listing IC50 for each of the following molecules?
1. CCCOn1cc(CC(=O)Nc2ccccc2Cl)c2ccccc21 [Compound 6d]
2. CCCOn1cc(CC(=O)Nc2ccncc2Cl)c2ccccc21 [Compound 10f]

1. > 100 µM
2. > 100 µM

Using the record for CCCCOn1cc(CC(=O)Nc2ccncc2Cl)c2ccccc21 [Compound 10i] , report its IC50.
> 100 µM
